- procedure.details: Solubility of the compound in PG/EtOH96 (3/7) solution incubated for 24 hrs by UV spectrometry
- Assay type: physicochemical
metric.name: solubility at 24 h

INSERT INTO results (chem_smiles, metric_name, observed_measurement) VALUES
  ('CCc1ccc(N(CC(C)C)S(=O)(=O)c2ccc(OCC3CCOCC3)c([S@@](C)(=N)=O)c2)cc1', 'solubility at 24 h', '31 mM');

====

- procedure.details: Lipophilicity, log D of the compound at pH 6.5 by HPLC analysis
- Assay type: physicochemical
- test.settings: buffer
Please respond with criterion met when measured logD is strictly beneath 5, and with criterion not met in all other cases.

INSERT INTO assay_data (molecule, discrete_label) VALUES
  ('CCc1ccc(N(CC(C)C)S(=O)(=O)c2ccc(OCC3CCOCC3)cc2)cc1', 'criterion not met'),
  ('CCc1ccc(N(CC(C)C)S(=O)(=O)c2ccc(OC3CCN(S(C)(=O)=O)CC3)c(S(C)(=N)=O)c2)cc1 (stereo not drawn)', 'criterion met'),
  ('CCc1ccc(N(CC(C)C)S(=O)(=O)c2ccc(OCC3CCOCC3)c(CC(=O)O)c2)cc1', 'criterion met'),
  ('CCc1ccc(N(CC(C)C)S(=O)(=O)c2ccc(N(C)CC3CCOCC3)c(S(C)(=N)=O)c2)cc1 (stereo not drawn)', 'criterion not met'),
  ('CCc1ccc(N(CC(C)C)S(=O)(=O)c2ccc(NCC3CCOCC3)c(S(C)(=N)=O)c2)cc1 (stereo not drawn)', 'criterion not met'),
  ('CCc1ccc(N(CC(C)C)S(=O)(=O)c2ccc(OCC3CCOCC3)c(S(C)(=N)=O)c2)cc1 (stereo not drawn)', 'criterion met'),
  ('CCc1ccc(N(CC(C)C)S(=O)(=O)c2ccc(NCC3(C)CCOCC3)c(S(C)(=N)=O)c2)cc1 (stereo not drawn)', 'criterion not met'),
  ('CCc1ccc(N(CC(C)C)S(=O)(=O)c2ccc(NCC3(F)CCOCC3)c(S(C)(=N)=O)c2)cc1 (stereo not drawn)', 'criterion not met'),
  ('CCc1ccc(N(CC(C)C)S(=O)(=O)c2ccc(OCC3CCOCC3)c([S+](C)[O-])c2)cc1 (stereo not drawn)', 'criterion not met'),
  ('CCc1ccc(N(CC(C)C)S(=O)(=O)c2ccc(N[C@H](C)C3CCOCC3)c(S(C)(=N)=O)c2)cc1 (stereo partly drawn)', 'criterion not met'),
  ('CCc1ccc(N(CC(C)C)S(=O)(=O)c2ccc(OCC3CCOCC3)c(CC(N)=O)c2)cc1', 'criterion met'),
  ('CCc1ccc(N(CC(C)C)S(=O)(=O)c2ccc(OCC3CCOCC3)c(S(C)(=O)=O)c2)cc1', 'criterion not met'),
  ('CCc1ccc(N(CC(C)C)S(=O)(=O)c2ccc(OCC3CCOCC3)c(S(C)(=O)=NC)c2)cc1 (stereo not drawn)', 'criterion not met'),
  ('CCc1ccc(N(CC(C)C)S(=O)(=O)c2ccc(OC3CCN(C(C)=O)CC3)c(S(C)(=N)=O)c2)cc1 (stereo not drawn)', 'criterion met'),
  ('CCc1ccc(N(CC(C)C)S(=O)(=O)c2ccc(N3CCN(C(C)=O)CC3)c(S(C)(=N)=O)c2)cc1 (stereo not drawn)', 'criterion met'),
  ('CCc1ccc(N(CC(C)C)S(=O)(=O)c2ccc(NCC3(O)CCOCC3)c(S(C)(=N)=O)c2)cc1 (stereo not drawn)', 'criterion met'),
  ('CCc1ccc(N(CC(C)C)S(=O)(=O)c2ccc(OCC3CCOCC3)c(S(N)(=O)=O)c2)cc1', 'criterion not met'),
  ('CCc1ccc(N(CC(C)C)S(=O)(=O)c2ccc(CCN3CCOCC3)c(S(C)(=N)=O)c2)cc1 (stereo not drawn)', 'criterion met');
